The reported numbers originate from paper PMC6429356.

Tested on: H1299 cells
Test: Cell viability assay (MTT, 72 h), H1299
Format: cell-based
Details: Homo sapiens, NCI-H1299, proliferation, mean ± s.d. (n = 3)
pIC50: −log10 of the molar value.
Measurement kind: pIC50

Worked set:
1. O=C1c2ccccc2C(=O)c2c1cc(NS(=O)(=O)c1cccc(F)c1F)c(O)c2O
4.34
2. COc1c(N(C)S(=O)(=O)c2ccc(Cl)cc2)cc2c(c1O)C(=O)c1ccccc1C2=O [Compound 14d]
4.99
3. O=C1c2ccccc2C(=O)c2c1cc(NS(=O)(=O)c1ccc(OC(F)(F)F)cc1)c(O)c2O
4.78

[a] O=C1c2ccccc2C(=O)c2c1cc(NS(=O)(=O)c1ccccc1OC(F)(F)F)c(O)c2O
[b] O=C1c2ccccc2C(=O)c2c1cc(NS(=O)(=O)c1c(Cl)cccc1Cl)c(O)c2O
QUERY: Which gives the smaller pIC50 number: a or b ? // respond with label for picked entry
RESULT: b

[a] O=C1c2ccccc2C(=O)c2c1cc(NS(=O)(=O)c1ccc(C(F)(F)F)cc1)c(O)c2O
[b] O=C1c2ccccc2C(=O)c2c1cc(NS(=O)(=O)c1ccc(Cl)cc1)c(O)c2O
[c] O=C1c2ccccc2C(=O)c2c1cc(NS(=O)(=O)c1ccccc1Br)c(O)c2O
QUERY: Give the ascending ranking of the items by reported pIC50. Rank the items, then write their labels in that order.
RESULT: c, a, b
(c: 4.30, a: 4.68, b: 5.16)

[P] O=C1c2ccccc2C(=O)c2c1cc(NS(=O)(=O)c1ccc(I)cc1)c(O)c2O
[Q] O=C1c2ccccc2C(=O)c2c1cc(NS(=O)(=O)c1ccccc1F)c(O)c2O
QUERY: Which gives the smaller pIC50 number: P or Q ? // respond with label for picked entry
RESULT: Q
(Q: 4.50, P: 4.76)
